tested on: HeLa; test: Antiproliferative activity against human HeLa cells after 72 hrs by MTT assay; type: functional, cell-based
Structures can show the parent of a compound that is named as a salt.
Label t when EC50 < 80 µM; otherwise f.

**Query** Here's an entry: COc1cccc2c1C(=O)c1c(O)c3c(c(O)c1C2=O)C[C@@](O)(C(=O)CO)C[C@@H]3O[C@H]1C[C@H](N)[C@H](O)[C@H](C)O1 [DOXORUBICIN HYDROCHLORIDE] . Is its EC50 below 80 µM?
**Result** t

**Query** Again, but for `O=c1cc(-c2ccccc2)oc2cc(O)c(C/C=C/c3ccccc3)c(O)c12`
**Result** f

**Query** Again, but for `CC[C@H](C)C(=O)O[C@H]1C(=O)c2c(O)cc(O)cc2O[C@@H]1c1ccccc1`
**Result** f

**Query** Again, but for `COc1cc(O)c2c(=O)c(O)c(-c3ccccc3)oc2c1`
**Result** f

**Query** Again, but for `O=C(/C=C/c1ccc(O)c(O)c1)OCCc1ccccc1`
**Result** t

----------
assay: Antiproliferative activity against mouse B16-BL6 cells after 72 hrs by MTT assay; assay type: functional, cell-based; conditions: B16-BL6, 72 h
Use EC50 to assign classes; range list: zone 1 (below 30 µM), zone 2 (30 µM to below 100 µM), zone 3 (100 µM or more)

**Query** Please report the category associated with `O=c1[nH]cc(F)c(=O)[nH]1` , nothing else.
**Result** zone 1

**Query** Again, but for `O=c1c(O)c(-c2ccccc2)oc2cc(O)cc(O)c12`
**Result** zone 1

**Query** Again, but for `O=C1C[C@@H](c2ccccc2)Oc2cc(O)cc(O)c21`
**Result** zone 2

**Query** Again, but for `COc1cc(O)c2c(c1)O[C@H](c1ccccc1)CC2=O`
**Result** zone 3

**Query** Again, but for `CC[C@H](C)C(=O)O[C@H]1C(=O)c2c(O)cc(O)cc2O[C@@H]1c1ccccc1`
**Result** zone 3

**Query** Again, but for `COc1cc(O)c2c(=O)cc(-c3ccccc3)oc2c1`
**Result** zone 3

**Query** Again, but for `O=c1cc(-c2ccccc2)oc2cc(O)c(C/C=C/c3ccccc3)c(O)c12`
**Result** zone 3

**Query** Again, but for `COc1ccc(/C=C/C(=O)O)cc1O`
**Result** zone 3

**Query** Again, but for COc1cc(/C=C/C(=O)OCc2ccccc2)ccc1O [BENZYL FERULATE]
**Result** zone 2

**Query** Again, but for `O=c1cc(-c2ccc(O)cc2)oc2cc(O)cc(O)c12`
**Result** zone 2

**Query** Again, but for `COc1cc(O)c2c(=O)c(O)c(-c3ccccc3)oc2c1`
**Result** zone 3

**Query** Again, but for `O=C(/C=C/c1ccc(O)c(O)c1)OCCc1ccccc1`
**Result** zone 1

----------
test system: A549; test: Antiproliferative activity against human A549 cells after 72 hrs by MTT assay; type: functional, cell-based; conditions: A549, 72 h
Structures can show the parent of a compound that is named as a salt.
For each entry below, report its pEC50 value.
Friendly reminder that pEC50 comes from taking -log10 of the concentration in mol/L.

**Query** Endpoint output: pEC50 of `O=c1cc(-c2ccc(O)cc2)oc2cc(O)cc(O)c12` . Value?
**Result** 4.00

**Query** Again, but for `CC[C@H](C)C(=O)O[C@H]1C(=O)c2c(O)cc(O)cc2O[C@@H]1c1ccccc1`
**Result** 3.80

**Query** Again, but for COc1cccc2c1C(=O)c1c(O)c3c(c(O)c1C2=O)C[C@@](O)(C(=O)CO)C[C@@H]3O[C@H]1C[C@H](N)[C@H](O)[C@H](C)O1 [DOXORUBICIN HYDROCHLORIDE]
**Result** 7.40

**Query** Again, but for `O=C(/C=C/c1ccc(O)c(O)c1)OCCc1ccccc1`
**Result** 4.55
